# TARGET_UNDER_TEST: UniProt:P18031
# PROTOCOL_DETAILS: PTP1B inhibitory kinetics (Lineweaver-Burk, Dixon and secondary plots)
# Format: biochemical
# CONDITION: Lineweaver-Burk plots, substrate 0.437-1.75 mM pNPP
MEASURED_ENDPOINT: Type of inhibition

C=C(C)C(O)Cc1cc(-c2oc3cc(O)c(OC)c(O)c3c(=O)c2OC)ccc1OC (centres unmarked) :: Mixed
CC1OC(OCC2OC(Oc3c(-c4ccc(O)cc4)oc4cc(O)cc(O)c4c3=O)C(O)C(O)C2O)C(O)C(O)C1O (centres unmarked) [Compound 8, Kaempferol 3-O-rutinoside] :: Non-competitive
COc1c(O)cc2oc(-c3ccc(O)cc3)c(OC)c(=O)c2c1O :: Mixed
COc1cc(-c2oc3cc(O)cc(O)c3c(=O)c2OC2OC(COC3OC(C)C(O)C(O)C3O)C(O)C(O)C2O)ccc1O (centres unmarked) [Compound 9, Isorhamnetin3-O-robinobioside] :: Non-competitive
COc1ccc(-c2oc3cc(O)c(OC)c(O)c3c(=O)c2OC)cc1CCC(C)CO (centres unmarked) :: Mixed

Ask: Check the records and state Type of inhibition for COc1c(O)cc2oc(-c3ccc(O)c(CCC(C)CO)c3)c(OC)c(=O)c2c1O (centres unmarked)
Result: Mixed

Ask: Check the records and state Type of inhibition for `COc1cc2oc(-c3ccc(O)cc3)c(OC)c(=O)c2c(O)c1OC`
Result: Mixed

* * *

# TARGET_UNDER_TEST: Protein tyrosine phosphatase 1B (PTP1B) (Homo sapiens)
# Sequence (P18031 whole entry, species assumed): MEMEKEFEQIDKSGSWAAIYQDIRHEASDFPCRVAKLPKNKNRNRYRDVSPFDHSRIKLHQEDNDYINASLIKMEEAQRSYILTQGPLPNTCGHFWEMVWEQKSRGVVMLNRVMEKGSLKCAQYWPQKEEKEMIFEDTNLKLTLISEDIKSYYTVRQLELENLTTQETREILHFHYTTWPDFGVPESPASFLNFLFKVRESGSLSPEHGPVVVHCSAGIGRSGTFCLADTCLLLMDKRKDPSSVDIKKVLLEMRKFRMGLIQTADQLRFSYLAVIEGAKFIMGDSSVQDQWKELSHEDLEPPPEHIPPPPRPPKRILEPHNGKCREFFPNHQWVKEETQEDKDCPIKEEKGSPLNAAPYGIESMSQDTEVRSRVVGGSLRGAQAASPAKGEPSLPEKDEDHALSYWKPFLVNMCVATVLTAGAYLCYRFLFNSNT
# PROTOCOL_DETAILS: PTP1B inhibitory kinetics (Lineweaver-Burk, Dixon and secondary plots)
# Format: biochemical
# CONDITION: secondary plot of slopes vs. inhibitor concentration, Equation 2; read-out: KI (inhibitor binding to free enzyme)
MEASURED_ENDPOINT: pKi
Expect pKi as a plain number equal to -log10 of the molar concentration.

Ask: Provide pKi, system Protein tyrosine phosphatase 1B (PTP1B) (Homo sapiens), entry `COc1ccc(-c2oc3cc(O)c(OC)c(O)c3c(=O)c2OC)cc1CC=C(C)C`
Result: 5.39

* * *

Protein tyrosine phosphatase 1B (PTP1B) (Homo sapiens) pIC50 data
pIC50: −log10 of the molar value.
MEASURED_ENDPOINT: pIC50

Here's what some known entries look like.
COc1ccc(-c2oc3cc(O)c(OC)c(O)c3c(=O)c2OC)cc1CCC(C)CO (stereo not shown) :: 4.25
C=C(C)C(O)Cc1cc(-c2oc3cc(O)c(OC)c(O)c3c(=O)c2OC)ccc1OC (stereo not shown) :: 4.55

a: COc1cc(-c2oc3cc(O)cc(O)c3c(=O)c2OC2OC(COC3OC(C)C(O)C(O)C3O)C(O)C(O)C2O)ccc1O (stereo not shown) [Compound 9, Isorhamnetin3-O-robinobioside]
b: CC1OC(OCC2OC(Oc3c(-c4ccc(O)cc4)oc4cc(O)cc(O)c4c3=O)C(O)C(O)C2O)C(O)C(O)C1O (stereo not shown) [Compound 8, Kaempferol 3-O-rutinoside]
Ask: Field: lower recorded pIC50 (choose a or b ) Give the label under which the chosen entry appears.
Result: a

* * *

# TARGET_UNDER_TEST: UniProt P18031
# PROTOCOL_DETAILS: PTP1B inhibitory kinetics (Lineweaver-Burk, Dixon and secondary plots)
# Format: biochemical
# CONDITION: from Dixon plots; read-out: Ki (inhibition constant)
pKi: −log10 of the molar value.
MEASURED_ENDPOINT: pKi

Here's what some known entries look like.
COc1c(O)cc2oc(-c3ccc(O)cc3)c(OC)c(=O)c2c1O [Compound 3, viscosine] :: 5.16
CC1OC(OCC2OC(Oc3c(-c4ccc(O)cc4)oc4cc(O)cc(O)c4c3=O)C(O)C(O)C2O)C(O)C(O)C1O (centres unmarked) [Compound 8, Kaempferol 3-O-rutinoside] :: 4.89
COc1c(O)cc2oc(-c3ccc(O)c(CCC(C)CO)c3)c(OC)c(=O)c2c1O (centres unmarked) [Compound 7] :: 4.84
COc1cc2oc(-c3ccc(O)cc3)c(OC)c(=O)c2c(O)c1OC [Compound 1, penduletin] :: 4.56

a: COc1cc(-c2oc3cc(O)cc(O)c3c(=O)c2OC2OC(COC3OC(C)C(O)C(O)C3O)C(O)C(O)C2O)ccc1O (centres unmarked) [Compound 9, Isorhamnetin3-O-robinobioside]
b: COc1ccc(-c2oc3cc(O)c(OC)c(O)c3c(=O)c2OC)cc1CC=C(C)C [Compound 4]
c: C=C(C)C(O)Cc1cc(-c2oc3cc(O)c(OC)c(O)c3c(=O)c2OC)ccc1OC (centres unmarked) [Compound 5]
Ask: List items by pKi in falling order. List the labels, following the order given in the request.
Result: b, c, a
